test_target: human IL-21R expressed on cells (human, UniProt Q9HBE5 20-538)
Sequence (Q9HBE5 20-538 limits assumed): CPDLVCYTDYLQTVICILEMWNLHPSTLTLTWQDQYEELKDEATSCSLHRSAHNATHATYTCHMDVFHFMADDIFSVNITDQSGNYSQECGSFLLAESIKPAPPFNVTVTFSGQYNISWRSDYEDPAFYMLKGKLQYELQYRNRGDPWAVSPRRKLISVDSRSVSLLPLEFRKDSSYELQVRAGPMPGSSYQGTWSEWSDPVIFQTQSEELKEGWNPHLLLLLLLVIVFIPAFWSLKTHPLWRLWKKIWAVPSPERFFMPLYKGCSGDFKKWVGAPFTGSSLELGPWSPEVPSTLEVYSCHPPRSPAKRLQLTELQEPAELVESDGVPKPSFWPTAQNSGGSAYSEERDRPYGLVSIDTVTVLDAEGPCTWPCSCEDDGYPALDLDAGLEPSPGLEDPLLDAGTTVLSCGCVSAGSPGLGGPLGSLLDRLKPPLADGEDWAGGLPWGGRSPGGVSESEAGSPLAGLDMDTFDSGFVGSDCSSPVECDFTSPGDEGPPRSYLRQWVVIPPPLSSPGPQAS
assay_name: cell-based or functional assay
reported_metric: Human IL-21R-TF1 Proliferation IC50

binder="AbM (antibody, human IgG1, V domains shown, Full-length human IgG1 / human lambda, transient, conditioned medium; Framework limits derived; also called VH6/VL13) VH: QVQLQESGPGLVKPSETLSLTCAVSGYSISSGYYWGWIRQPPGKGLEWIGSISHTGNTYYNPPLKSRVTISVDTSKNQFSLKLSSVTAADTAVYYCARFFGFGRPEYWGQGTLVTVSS VL: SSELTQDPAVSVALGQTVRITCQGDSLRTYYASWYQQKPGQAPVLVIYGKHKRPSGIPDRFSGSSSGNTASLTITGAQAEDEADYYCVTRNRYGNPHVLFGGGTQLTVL" reported_metric="Human IL-21R-TF1 Proliferation IC50" experimental_value="4.22 nM"
binder="AbH (antibody, human IgG1, V domains shown, Full-length human IgG1 / human lambda, transient, conditioned medium; Framework limits derived; also called VHP/VL19) VH: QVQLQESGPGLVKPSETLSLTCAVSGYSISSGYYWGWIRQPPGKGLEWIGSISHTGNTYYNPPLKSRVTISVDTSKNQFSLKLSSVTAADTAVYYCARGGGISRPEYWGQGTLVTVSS VL: SSELTQDPAVSVALGQTVRITCQGDSLRTYYASWYQQKPGQAPVLVIYGKHKRPSGIPDRFSGSSSGNTASLTITGAQAEDEADYYCVARAVRGNPHVLFGGGTQLTVL" reported_metric="Human IL-21R-TF1 Proliferation IC50" experimental_value="3.64 nM"
binder="AbR (antibody, human IgG1, V domains shown, Purified form: human IgG1 double-mutant (L234A, G237A); Framework limits derived; also called VH3/VL18; VH3DM/VL18) VH: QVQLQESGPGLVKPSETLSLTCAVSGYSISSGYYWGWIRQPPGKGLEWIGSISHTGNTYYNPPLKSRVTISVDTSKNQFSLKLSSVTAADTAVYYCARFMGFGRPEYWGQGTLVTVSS VL: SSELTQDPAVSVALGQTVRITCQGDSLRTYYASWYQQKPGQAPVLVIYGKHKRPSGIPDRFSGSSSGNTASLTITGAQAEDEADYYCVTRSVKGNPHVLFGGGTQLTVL" reported_metric="Human IL-21R-TF1 Proliferation IC50" experimental_value="3.94 nM"
binder="AbC (antibody, human IgG1, V domains shown, Full-length human IgG1 / human lambda, transient, conditioned medium; Framework limits derived; also called VHP/VL11) VH: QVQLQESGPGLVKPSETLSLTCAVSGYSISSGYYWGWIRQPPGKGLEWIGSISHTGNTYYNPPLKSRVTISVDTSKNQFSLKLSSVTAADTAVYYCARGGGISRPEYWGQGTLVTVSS VL: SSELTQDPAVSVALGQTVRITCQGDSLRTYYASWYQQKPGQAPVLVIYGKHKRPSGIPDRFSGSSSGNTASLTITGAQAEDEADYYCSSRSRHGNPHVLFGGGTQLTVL" reported_metric="Human IL-21R-TF1 Proliferation IC50" experimental_value="3.36 nM"
binder="AbG (antibody, human IgG1, V domains shown, Full-length human IgG1 / human lambda, transient, conditioned medium; Framework limits derived; also called VHP/VL18) VH: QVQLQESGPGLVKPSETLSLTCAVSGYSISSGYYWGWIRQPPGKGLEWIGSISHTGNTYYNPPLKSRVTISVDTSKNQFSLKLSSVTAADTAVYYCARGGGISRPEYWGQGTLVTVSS VL: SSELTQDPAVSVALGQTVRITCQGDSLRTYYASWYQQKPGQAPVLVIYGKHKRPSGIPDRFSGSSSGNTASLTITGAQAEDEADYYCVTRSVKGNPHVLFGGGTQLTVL" reported_metric="Human IL-21R-TF1 Proliferation IC50" experimental_value="3.84 nM"
binder="AbA (antibody, human IgG1, V domains shown, Full-length human IgG1 / human lambda, transient, conditioned medium; Framework limits derived; also called VHP/VL2) VH: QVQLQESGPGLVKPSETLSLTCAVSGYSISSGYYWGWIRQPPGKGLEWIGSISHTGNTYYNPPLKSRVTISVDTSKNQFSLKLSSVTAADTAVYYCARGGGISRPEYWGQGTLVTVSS VL: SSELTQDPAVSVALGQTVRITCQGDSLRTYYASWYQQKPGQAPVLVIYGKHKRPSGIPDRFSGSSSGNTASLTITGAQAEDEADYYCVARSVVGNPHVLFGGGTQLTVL" reported_metric="Human IL-21R-TF1 Proliferation IC50" experimental_value="3.8 nM"
binder="AbO (antibody, human IgG1, V domains shown, Human IgG1 triple-mutant (L234A, L235A, G237A); Framework limits derived; also called VHP/VL16; VHPTM/VL16) VH: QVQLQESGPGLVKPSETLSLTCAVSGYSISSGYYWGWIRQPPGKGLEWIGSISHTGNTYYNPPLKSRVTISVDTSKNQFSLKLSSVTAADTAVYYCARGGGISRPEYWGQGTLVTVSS VL: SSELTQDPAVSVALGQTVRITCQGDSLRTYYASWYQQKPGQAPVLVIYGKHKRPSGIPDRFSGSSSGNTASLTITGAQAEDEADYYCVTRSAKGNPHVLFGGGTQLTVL" reported_metric="Human IL-21R-TF1 Proliferation IC50" experimental_value="2.91 nM"
binder="AbT (antibody, human IgG1, V domains shown, Human IgG1 triple-mutant (L234A, L235A, G237A); Framework limits derived; also called VHP/VL9; VHPTM/VL9) VH: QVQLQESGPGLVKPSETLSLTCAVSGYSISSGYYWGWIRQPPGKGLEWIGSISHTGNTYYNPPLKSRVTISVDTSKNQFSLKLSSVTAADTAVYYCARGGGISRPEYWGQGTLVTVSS VL: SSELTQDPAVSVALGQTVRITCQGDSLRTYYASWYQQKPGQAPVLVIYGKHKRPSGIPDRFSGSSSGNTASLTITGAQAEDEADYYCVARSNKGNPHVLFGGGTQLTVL" reported_metric="Human IL-21R-TF1 Proliferation IC50" experimental_value="3.26 nM"
binder="AbN (antibody, human IgG1, V domains shown, Full-length human IgG1 / human lambda, transient, conditioned medium; Framework limits derived; also called VH6/VL24) VH: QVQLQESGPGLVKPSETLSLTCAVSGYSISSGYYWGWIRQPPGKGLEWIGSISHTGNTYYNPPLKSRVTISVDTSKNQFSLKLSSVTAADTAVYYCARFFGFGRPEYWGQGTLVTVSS VL: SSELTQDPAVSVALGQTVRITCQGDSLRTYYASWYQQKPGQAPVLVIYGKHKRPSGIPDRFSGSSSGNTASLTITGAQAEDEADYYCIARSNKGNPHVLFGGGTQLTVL" reported_metric="Human IL-21R-TF1 Proliferation IC50" experimental_value="1.59 nM"
binder="AbU (antibody, human IgG1, V domains shown, Human IgG1 triple-mutant (L234A, L235A, G237A); Framework limits derived; also called VHP/VL25; VHPTM/VL25) VH: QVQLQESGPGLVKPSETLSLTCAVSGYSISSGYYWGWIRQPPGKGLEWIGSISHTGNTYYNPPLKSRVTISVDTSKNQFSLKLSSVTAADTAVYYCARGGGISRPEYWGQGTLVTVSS VL: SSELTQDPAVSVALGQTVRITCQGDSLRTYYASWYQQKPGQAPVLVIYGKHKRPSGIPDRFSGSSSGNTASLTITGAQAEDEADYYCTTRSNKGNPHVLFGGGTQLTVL" reported_metric="Human IL-21R-TF1 Proliferation IC50" experimental_value="3.13 nM"
